Assay: Tmax in ICR mouse at 20 mg/kg, po administered via oral gavage by LC-MS/MS analysis
Format: ADME, organism-based
Conditions: in vivo
PARAMETER: Tmax (min)
Reply numerically in min, unit not repeated.

Quick one: Tmax of Cc1ncccc1C(=O)Nc1nc2cc(C(N)=O)ccc2n1CCCCNC(=O)OC(C)(C)C ? 25.2

====

Experiment: Stability in mouse plasma assessed as remaining activity at 5 uM incubated for 4 hrs by LC-MS/MS analysis
Assay type: ADME, cell-free
Conditions: read-out: Stability
PARAMETER: remaining at 4 h, 5 µM

Quick one: remaining at 4 h, 5 µM of Cc1ncccc1C(=O)Nc1nc2cc(C(N)=O)ccc2n1CCCCNC(=O)OC(C)(C)C ? 99.5%

Attribution: ChEMBL document CHEMBL5634145
